Test system: Mycolicibacterium smegmatis
Experiment: Antibacterial activity against Mycobacterium smegmatis by microtiter plate assay
Type: functional
Quick reference for MIC among some compounds
// units = µg/mL; emit number, no label

Entry COc1ccc2c(OC)c3ccoc3nc2c1OC , tested on Mycolicibacterium smegmatis, has a reported MIC of 100

Entry CC(O)CCCCc1ccc2c(c1)OCO2 (stereo not given) , tested on Mycolicibacterium smegmatis, has a reported MIC of 100

Entry Cn1c2ccccc2c(=O)c2c(O)cc3c(c21)CC(C(C)(O)CCl)O3 (stereo not given) , tested on Mycolicibacterium smegmatis, has a reported MIC of 100

Entry COc1ccc2nc3occc3c(OC)c2c1 , tested on Mycolicibacterium smegmatis, has a reported MIC of 50

Entry COc1c2ccccc2nc2occc12 , tested on Mycolicibacterium smegmatis, has a reported MIC of 100

* * *

Test system: Bacillus subtilis
Assay: Antibacterial activity against Bacillus subtilis by microtiter plate assay
Type: functional
Quick reference for MIC among some compounds
// units = µg/mL; emit number, no label

Consider the following illustrative entries.
compound: COc1ccc2c(OC)c3ccoc3nc2c1OC [SKIMMIANINE]
measurement_target: Bacillus subtilis
value_reported: 100

compound: Cn1c2ccccc2c(=O)c2c(O)cc3c(c21)CC(C(C)(O)CCl)O3 (stereo not given) [ISOGRAVACRIDONECHLORINE]
measurement_target: Bacillus subtilis
value_reported: 100

compound: COc1ccc2nc3occc3c(OC)c2c1 [PTELEINE]
measurement_target: Bacillus subtilis
value_reported: 50

Memo: COc1c2ccccc2nc2occc12 [DICTAMNINE] , reported MIC: 100

Memo: CC(O)CCCCc1ccc2c(c1)OCO2 (stereo not given) [MOSKACHAN C] , reported MIC: 100
